// data source = patent US20260374754A1

- study-system: human activated kallikrein enzyme (Homo sapiens)
- Sequence (P03952 391-638 limits assumed): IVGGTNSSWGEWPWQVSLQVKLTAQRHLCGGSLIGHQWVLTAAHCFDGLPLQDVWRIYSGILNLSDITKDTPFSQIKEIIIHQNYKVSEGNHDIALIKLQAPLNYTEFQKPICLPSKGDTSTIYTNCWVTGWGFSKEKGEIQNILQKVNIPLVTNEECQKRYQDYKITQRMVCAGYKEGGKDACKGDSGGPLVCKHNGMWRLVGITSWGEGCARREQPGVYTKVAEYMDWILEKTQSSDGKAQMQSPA
- Sequence (P03952 20-390 partner limits assumed): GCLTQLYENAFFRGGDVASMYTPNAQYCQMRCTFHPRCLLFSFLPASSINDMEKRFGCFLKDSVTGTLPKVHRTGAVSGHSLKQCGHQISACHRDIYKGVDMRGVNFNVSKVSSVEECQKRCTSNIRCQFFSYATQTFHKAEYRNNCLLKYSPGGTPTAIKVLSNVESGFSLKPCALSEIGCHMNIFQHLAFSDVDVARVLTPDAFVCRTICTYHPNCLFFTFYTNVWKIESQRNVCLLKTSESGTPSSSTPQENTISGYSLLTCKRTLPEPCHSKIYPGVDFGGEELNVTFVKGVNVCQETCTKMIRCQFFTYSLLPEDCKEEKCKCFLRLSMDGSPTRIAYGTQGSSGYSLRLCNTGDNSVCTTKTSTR
- test-method-notes: Inhibition of human activated plasma kallikrein, fluorogenic PFR-AMC substrate, 500 pM enzyme format
- Assay type: biochemical
- particulars: 500 pM activated kallikrein; 300 μM PFR-AMC; 30 min preincubation; 10 min room temperature; pH 7.5; read-out: Primary Dose Response Assay: Average EC50
- Protocol: Compounds were evaluated for inhibition of the human activated kallikrein enzyme in two formats of an assay employing a fluorogenic peptide substrate. […] After initiation with substrate, reactions were incubated for 10 min at room temperature and fluorescence emission at 460 nm from 380 nm excitation measured with a microplate reader. […]
pEC50: −log10 of the molar value.
Each entry below carries its reported pEC50.

# count of solved cases: 3
>  <structure-string>
Cc1cc2c(N)nccc2c(C)c1CNC(=O)c1cn(Cc2ccc(Cn3cccn3)cc2)nc1C(F)(F)F

>  <study-system>
human activated kallikrein enzyme (Homo sapiens)

>  <reported-value>
> 9.00

$$$$
>  <structure-string>
Cc1cc2c(N)nccc2c(C)c1CNC(=O)c1cnn(Cc2ccccc2C#N)c1

>  <study-system>
human activated kallikrein enzyme (Homo sapiens)

>  <reported-value>
6.00 to 7.00

$$$$
>  <structure-string>
Cc1cc2c(N)nccc2c(C)c1CNC(=O)c1cnn(Cc2ccccc2F)c1

>  <study-system>
human activated kallikrein enzyme (Homo sapiens)

>  <reported-value>
< 6.00

$$$$

Here is the next item to consider.
Query block: I'd like to know its pEC50. The molecule in question is CC(=O)Nc1nccc2c(C)c(CNC(=O)c3cnn(Cc4ccc5ncc(Cl)cc5c4)c3)c(C)cc12
Result block: 7.00 to 8.00
